Where do these numbers come from? They come from PubChem BioAssay AID1845197.

- Tested on: 349418-098-R tumor spheroid viability;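 also: spheroids exposed to compound for 7 days before measurement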
- MEASUREMENT_PROTOCOL: Anticancer human tumor 349418-098-R patient-derived lung adenocarcinoma cell line growth inhibition
- CONDITION_SUMMARY: curve of first compound; second compound 0.000949 µM; spheroids with HUVEC and MSC
I'd be grateful if you could share measured IC50 for these entries.

Task item: GET /values?readout=IC50&item= Cc1cc(C)c(CNC(=O)c2cc(-c3ccc(CN4CCOCC4)cc3)cc3c2cnn3C2CCCC2)c(=O)[nH]1 + COc1cc2c(cc1O)CCNC21CSC2c3c(OC(C)=O)c(C)c4c(c3C(COC1=O)N1C(O)C3Cc5cc(C)c(OC)c(O)c5C(C21)N3C)OCO4
Reply: < 0.0316 µM

Task item: GET /values?readout=IC50&item= CNCc1ccc(-c2cc(-c3nc(-c4ccc(S(=O)(=O)C(C)C)cc4)cnc3N)on2)cc1 + COc1cc2c(cc1O)CCNC21CSC2c3c(OC(C)=O)c(C)c4c(c3C(COC1=O)N1C(O)C3Cc5cc(C)c(OC)c(O)c5C(C21)N3C)OCO4
Reply: < 0.00949 µM

Task item: GET /values?readout=IC50&item= O=C(c1cc(Cc2n[nH]c(=O)c3ccccc23)ccc1F)N1CCN(C(=O)C2CC2)CC1 + COc1cc2c(cc1O)CCNC21CSC2c3c(OC(C)=O)c(C)c4c(c3C(COC1=O)N1C(O)C3Cc5cc(C)c(OC)c(O)c5C(C21)N3C)OCO4
Reply: < 0.0949 µM

Task item: GET /values?readout=IC50&item= COc1cc(C)[nH]c(=O)c1CN1CCc2c(Cl)cc(C(OC)C3COC3)c(Cl)c2C1=O (centres undefined) + COc1cc2c(cc1O)CCNC21CSC2c3c(OC(C)=O)c(C)c4c(c3C(COC1=O)N1C(O)C3Cc5cc(C)c(OC)c(O)c5C(C21)N3C)OCO4
Reply: < 0.0316 µM
